Where do these numbers come from? They come from patent US9302999B2.

# Tested on: galium (catchweed bedstraw, Galium aparine)
# test_protocol: Test D pre-/postemergence: galium
# Format: in vivo
# run_conditions: Postemergence, 125 g ai/ha; scale 0 to 100, 0 no effect, 100 complete control
I'd appreciate it if you could supply Plant response rating: Galium values for the items below.
Answers are plain numbers.

CCOc1nn(-c2ccc(F)cc2)nc1Cc1ccnc(C(F)(F)F)c1 [Compound 196]; 90
Cc1nn(-c2ccc(C(F)(F)F)cn2)nc1Cc1cccc(C(F)(F)F)c1 [Compound 106]; 40

Record Plant response rating: Galium per entry; entries follow.
1. COc1nn(-c2ccc(C(F)(F)F)cc2)nc1Cc1ccnc(C(F)F)c1 [Compound 138]
2. FC(F)(F)COc1nn(-c2ccc(C(F)(F)F)cc2)nc1Cc1ccnc(C(F)(F)F)c1 [Compound 14]

a:
1: 90; 2: 55

* * *

# Tested on: kochia (Kochia scoparia)
# test_protocol: Test C pre-/postemergence: kochia
# Type: in vivo
# run_conditions: Postemergence, 31 g ai/ha; scale 0 to 100 (0 no effect, 100 complete control)
property_measured: Plant response rating, Kochia
Give bare numbers.

CCCc1nn(-c2ccc(C(F)(F)F)cc2)nc1Oc1ccnc(C(F)(F)F)c1 [Compound 170]; 90

Record Plant response rating, Kochia per entry; entries follow.
1. CCOc1nn(-c2ccc(C(F)(F)F)cc2)nc1Cc1ccnc(C(F)(F)F)c1 [Compound 164]
2. CCOc1nn(-c2ccc(F)cc2)nc1Cc1ccnc(C(F)(F)F)c1 [Compound 196]
3. Cc1nn(-c2ccc(C(F)(F)F)cc2)nc1Oc1ccnc(C(F)(F)F)c1 [Compound 120]
4. CCc1nn(-c2ccc(C(F)(F)F)cc2)nc1Cc1ccnc(C(F)(F)F)c1 [Compound 155]
5. Cc1nn(-c2ccnc(Cl)c2)nc1Cc1ccnc(C(F)(F)F)c1 [Compound 141]
6. Cc1nn(-c2ccc(C(F)(F)F)c(F)c2)nc1Oc1ccnc(C(F)(F)F)c1 [Compound 148]
7. FC(F)(F)c1ccc(-n2nc(Cl)c(Cc3ccnc(C(F)(F)F)c3)n2)cc1 [Compound 28]
8. COc1nn(-c2cccc(F)c2)nc1Cc1ccnc(C(F)(F)F)c1 [Compound 139]

a:
40
85
65
90
85
80
40
85

* * *

# Test system: morningglory (Ipomoea coccinea)
# test_protocol: Test C pre-/postemergence: morningglory
# Assay type: in vivo
# run_conditions: Postemergence, 62 g ai/ha; scale 0 to 100 (0 no effect, 100 complete control)
I'd appreciate it if you could supply Plant response rating, Morningglory values for the items below.
One number for each entry.

Example entries begin here.
CCCc1nn(-c2ccc(F)cc2)nc1Oc1ccnc(C(F)(F)F)c1 [Compound 168]; 80
CCOc1nn(-c2ccc(C(F)(F)F)cc2)nc1Cc1ccnc(C(F)(F)F)c1 [Compound 164]; 60
CCc1nn(-c2ccc(C(F)(F)F)cc2)nc1Cc1ccnc(C(F)(F)F)c1 [Compound 155]; 65
CCCc1nn(-c2ccc(C(F)(F)F)cc2)nc1Oc1ccnc(C(F)(F)F)c1 [Compound 170]; 98

Below: the item to evaluate.
q: Please give measured Plant response rating, Morningglory of the following entry: COc1nn(-c2cccc(F)c2)nc1Cc1ccnc(C(F)(F)F)c1 [Compound 139]
a: 60

* * *

# Tested on: soybean (Glycine max)
# test_protocol: Test C pre-/postemergence: soybean
# Assay type: in vivo
# run_conditions: Postemergence, 31 g ai/ha; scale 0 to 100 (0 no effect, 100 complete control)
# Description: […] Treated plants and controls were maintained in a greenhouse for 13 to 15 days, after which time all species were compared to controls and visually evaluated. […]
I'd appreciate it if you could supply Plant response rating, Soybean values for the items below.
Give bare numbers.

Example entries begin here.
CCc1nn(-c2ccc(F)c(F)c2)nc1Oc1ccnc(C(F)(F)F)c1; 25
FC(F)(F)c1ccc(-n2nc(Cl)c(Cc3ccnc(C(F)(F)F)c3)n2)cc1; 30
COc1nn(-c2ccc(C(F)(F)F)cc2)nc1Cc1ccnc(C(F)(F)F)c1; 10
CCCc1nn(-c2ccc(F)cc2F)nc1Oc1ccnc(C(F)(F)F)c1; 30

Below: the item to evaluate.
q: Please give measured Plant response rating, Soybean of the following entry: "Cc1nn(-c2ccnc(Cl)c2)nc1Cc1ccnc(C(F)(F)F)c1"
a: 40
